tested on: Onchocerca lienalis; test: MMV: Percent motility assay at a compound concentration of 7.8e-7 M. Activity score legend: 3: Active, 2: Moderately active; 1: Inactive, 0: Toxic; type: functional; conditions: at 0.78 µM
Recorded Motility, one value per entry.

compound: COc1ccc(-n2ccnc2SCC(=O)Nc2cc(C)ccc2C)c(OC)c1
measurement.units: %
Motility: 100
--
compound: CCOC(=O)C1=C(C)N=c2sc(=Cc3cc(Cl)ccc3O)c(=O)n2C1c1ccc(OC)cc1 (stereo not given)
measurement.units: %
Motility: 100
--
compound: CC1CCN(Cc2ccc(NC(=O)c3cc4ccc5cccnc5c4[nH]3)cc2)CC1
measurement.units: %
Motility: 100
--
compound: O=C(NC1CCCCC1)C(c1cccs1)N(CCc1ccccc1)C(=O)c1ccco1 (stereo not given)
measurement.units: %
Motility: 100
--
compound: Nc1ccc(-c2nc3cc(Cc4ccc5[nH]c(-c6ccc(N)cc6)nc5c4)ccc3[nH]2)cc1
measurement.units: %
Motility: 100
